Tested on: S. aureus Smith
experimentNotes: Antibacterial activity (MIC), S. aureus
Type: cell-based
recordedConditions: Staphylococcus aureus, Table 1; read-out: Antibacterial MIC (μM) S. aureus Smith
Excerpt: As used herein, a minimum inhibitory concentration (MIC) for bacterial growth assay is the lowest level of a compound needed to cause an inhibition to bacterial growth in culture medium. In certain embodiments, the antibacterial activity of compounds herein, measured as MIC. […] Antibacterial activity for E. coli, ATCC8739 andS. aureus Smith expressed as MIC (μM) is provided as follows: […]
Reported MIC values for the following molecules.

1. Nc1c(F)c(NCCCn2ccnc2)c(F)c2c1c(=O)c(C(=O)O)cn2C1CC1 [compound 23] ... 0.5 to 10 µM
2. CC1COc2c(NCCNc3ccccn3)c(F)c(N)c3c(=O)c(C(=O)O)cn1c23 (centres unmarked) [compound 90] ... 0.5 to 10 µM
3. Nc1c(F)c(NCCCCc2ccccc2)c(F)c2c1c(=O)c(C(=O)O)cn2C1CC1 [compound 20] ... 0.5 to 10 µM
4. Nc1c(F)c(NCCNc2ccccn2)c(F)c2c1c(=O)ccn2C1CC1 [compound 15] ... > 50 µM

Request the reported MIC associated with CC(C)(C)OC(=O)NCCNc1c(F)c(N)c2c(=O)ccn(C3CC3)c2c1F [compound 29]
> 50 µM

Looking for the measured MIC of Nc1c(F)c(NCCCn2ccnc2)c(F)c2c1c(=O)ccn2C1CCCC1 [compound 74] , can you help?
> 50 µM

Tell me the measured MIC of CC(C)OCCCNc1c(F)c(N)c2c(=O)ccn(CCc3ccccc3)c2c1F [compound 60] , please.
10 to 50 µM

Given the molecule Nc1c(F)c(NCCCn2ccnc2)c(F)c2c1c(=O)c(C(=O)O)cn2CCc1ccccc1 [compound 48] , what is its reported MIC?
> 50 µM

Data provenance: patent US8063221B2
